The values you see were collected from PubChem BioAssay AID179.

Tested on: CEM cells HIV-1 protection, formazan growth assay
Assay: NCI AIDS Antiviral Assay;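 active = compounds giving half or more protection of infected cells from virus-caused growth loss, again on retest; inactive = the rest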
Parameter call: string, one of yes = active, no = inactive

Each compound tested received a call. Report the one for COc1ccc2c(c1O)-c1c(O)cccc1CCN(C)CC2 .
no

* * *

System: CEM cells HIV-1 protection, formazan growth assay
Assay: NCI AIDS Antiviral Assay
pEC50: −log10 of the molar value. Where a SMILES comes first, the peptide text is derived from it. [ ]: non-standard residue; d: D form. Hpg = N[CH](C(=O)O)c1ccc(O)cc1
property.measured: pEC50

CN(C)c1c(C2OC(CO)C(O)C2O)c(=O)c1=O (stereo unspecified) ... < 3.70
O=C1N=C(C=c2ccc(=Cc3[nH]c(=O)n(CN4CCCCC4)c3O)cc2)C(=O)N1CN1CCCCC1 ... < 4.00
Cc1ccc2c(c1)C(=O)N1CCC[C@H]1C=N2 ... < 3.70

Could you share which pEC50 value was measured for CC(C)CC(N)C(=O)NC(C(N)=O)c1ccc(O)cc1 (stereo unspecified) (H-Leu-[Hpg]-NH2; configuration not given here) ?
< 3.70

Entry C=C(C)C1CCC(C(=O)O)CC1 (stereo unspecified) has what pEC50?
< 3.70
